// reported Kd for each item listed
Biological target: T1, cyCD3e(1-109)_F-chLys_avi (cynomolgus monkey)
T1 construct: also called cynomolgus monkey CD3 epsilon antigen
T1 sequence (chain, as listed by the source limits assumed): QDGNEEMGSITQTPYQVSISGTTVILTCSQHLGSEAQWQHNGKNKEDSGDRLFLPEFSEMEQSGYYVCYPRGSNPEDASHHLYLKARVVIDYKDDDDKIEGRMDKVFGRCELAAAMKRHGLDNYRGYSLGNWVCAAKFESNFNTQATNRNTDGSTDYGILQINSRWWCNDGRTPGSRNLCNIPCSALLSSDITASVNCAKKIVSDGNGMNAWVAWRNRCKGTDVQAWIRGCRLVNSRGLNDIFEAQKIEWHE
Test: BLI (Octet HTX); FabCys captured on Fab-specific sensor, CD3e antigen as analyte; 1:1 model; less precise, dissociation at assay limit

Sample answers from the record:
# binder, Kd
data = [
    ("MAB-8_h_FabCys (Fab, V domains shown, Tagless disulfide-bridged human FabCys produced in HEK293 cells; also called MAB-8 Fab-Cys) VH: EVQLVESGGGLVQPGGSLRLSCAASGFTFRSHYMTWVRQAPGKGLEWVANIDYEGTRTYYAESVKGRFTISRDNAKNSLYLQMNSLRAEDTAVYYCARGYSAEFAHRSGLDVWGQGTLVTVSS VL: QSVLTQPPSASGTPGQRVTISCSGSSSNIGSNYVYWYQQLPGTAPKLLIYRNNQRPSGVPDRFSGSKSGTSASLAISGLRSEDEADYYCAAWDRHSHGAVFGGGTKLTVLG", "~0.1 nM"),
    ("MAB-12_h_FabCys (Fab, V domains shown, Tagless disulfide-bridged human FabCys produced in HEK293 cells; also called MAB-12 Fab-Cys) VH: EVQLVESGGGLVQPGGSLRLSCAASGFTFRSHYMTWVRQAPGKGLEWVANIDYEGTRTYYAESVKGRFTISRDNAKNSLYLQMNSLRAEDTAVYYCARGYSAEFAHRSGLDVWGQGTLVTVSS VL: QSVLTQPPSASGTPGQRVTISCSGSSSNIGANYVYWYQQLPGTAPKLLIYRNNQRPSGVPDRFSGSKSGTSASLAISGLRSEDEADYYCAAWDRHSHGAVFGGGTKLTVLG", "≤ 0.1 nM"),
]

### Prompt For MAB-9_h_FabCys (Fab, V domains shown, Tagless disulfide-bridged human FabCys produced in HEK293 cells; also called MAB-9 Fab-Cys) VH: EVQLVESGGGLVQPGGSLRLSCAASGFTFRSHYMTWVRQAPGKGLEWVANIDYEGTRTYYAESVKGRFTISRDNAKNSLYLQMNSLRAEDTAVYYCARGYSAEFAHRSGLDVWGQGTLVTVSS VL: QSVLTQPPSASGTPGQRVTISCSGSSSNIGINYVYWYQQLPGTAPKLLIYRNNIRPSGVPDRFSGSKSGTSASLAISGLRSEDEADYYCAAWDRHSHGAVFGGGTKLTVLG , write its Kd.
### Response ≤ 0.1 nM

### Prompt For MAB-13_h_FabCys (Fab, V domains shown, Tagless disulfide-bridged human FabCys produced in HEK293 cells; also called MAB-13 Fab-Cys) VH: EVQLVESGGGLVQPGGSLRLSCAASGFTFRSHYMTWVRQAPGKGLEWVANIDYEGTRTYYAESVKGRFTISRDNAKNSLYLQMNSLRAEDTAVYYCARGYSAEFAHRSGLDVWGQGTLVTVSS VL: QSVLTQPPSASGTPGQRVTISCSGSSSNIGINYVYWYQQLPGTAPKLLIYRNNQRPSGVPDRFSGSKSGTSASLAISGLRSEDEADYYCAAWDRHSHGAVFGGGTKLTVLG , write its Kd.
### Response ≤ 0.1 nM
